B1: glmS ribozyme (parent)
chain: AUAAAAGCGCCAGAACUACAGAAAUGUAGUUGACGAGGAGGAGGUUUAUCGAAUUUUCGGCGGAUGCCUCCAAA

- Variants of: B1
- procedure_text: self-cleavage kobs at 40 uM GlcN6P; higher = faster cleavage; RNA array
- condition_set: with glucosamine-6-phosphate
This sample holds only a part of the variants without activity.
Recorded self-cleavage kobs at 40 uM GlcN6P for the following variants

Solved entries (count: 10):
AUAAAAGCGCCAGAACUACAGAAAUGUAGUUGAUGAGGAGAAGGUUUAUCGAAUUUUCGGCGGAUGCAUCCAAA | < 1e-05 s⁻¹
AUAAAAGCGCCAGAACUACAGAAAUGUAUUUAACGAGGAGGAGGUUUAUCGAAUUUUCGGCGGAGACCUCCAAA | < 1e-05 s⁻¹
AUAAAAGCGCCAGAACUACAGAAAUGUAGUUGACAAGGAGGAGGUUUAUGGAAUUUUCGGCGGAUGCCUCUAAA | 0.000138 s⁻¹
AUAAAAGUGCCAGAACUACAGAAAUGUAGUGGACGAGGAGGAGGUUUAUCGAAUUUUCGGCUGAUGCCUCCAAA | < 1e-05 s⁻¹
AUAAAAGCGCCAGAACUACAGAAAUGUAGUUUACAAGGAGGAGGUUUAUCGAAUUUCCGGCGGAUGCCUCCAAA | < 1e-05 s⁻¹
AUAAAAGAGCCAAAACUACAGAAAUGUAGUUGACGAGGAGGAGGUUGAUCGAAUUUUCGUCGGAUGCCUCCAAA | < 1e-05 s⁻¹
AUAAAAGCGCCAGAACUACAGAAAUGUAGUUGACGAGGAGGAGGUUUAUGGAAUUUUCGGCGGAUGCCUAGAAA | 7.15e-05 s⁻¹
AUAAAAGCGCCAGAACUACAGAAAUGUAGUUGACGAGGAGAAGGUUUAUCGAAUUUUCGGCAGAUGCCUCCAAA | < 1e-05 s⁻¹
AUAAAAGCGAUAGAACUACAGAAAUGUAGUUGCCGAGGAGGAGGUUUAGCGAAUUUUCGGCGGAUGGCUCCAAA | < 1e-05 s⁻¹
AUAAAGGCGCCAGAACUACAGAAAUGUAGUUGACAAGGAGGAGGUUUAUCGAAUUUUCGGCGGAUGUCACCAAA | < 1e-05 s⁻¹

Attention now turns to another entry.
Any idea what self-cleavage kobs at 40 uM GlcN6P was measured for AUAAAAGCGACAGAACUACAGAAAUGUAGUUGACGAGGAGGAGGUUUAUCGAAUUUUCGGAGGAUGCCUCCAAA ? < 1e-05 s⁻¹
